- Tested on: 2Sb-muMax20 (muMax20 with two 1,3-bis(methyl)benzene Cys staples, A13C/A17C and Q88C/A92C, C-terminal Lys)
- experimentalDetails: PBM 8-mer E-score (E-score (rank enrichment, -0.5 to 0.5)); higher = stronger preferential binding
In all, about 33,000 sequences were measured (“E-score (rank enrichment, -0.5 to 0.5)”: median about -0.0028, highest 2% from about 0.23 on). This excerpt belongs to a sample that is enriched for the highest values.

# sequenceChain, PBM 8-mer E-score
records = [
    ("ATACAAGC", 0.284),
    ("ACACAACG", 0.0437),
    ("GGGCATCA", 0.0183),
    ("GCTAGAAA", 0.197),
    ("CTAATCAA", 0.277),
    ("ACGGCTTA", 0.0267),
    ("CTACAAGC", -0.00747),
    ("TGAATCAA", 0.0626),
    ("ATACAACC", -0.0388),
    ("ATATGGCG", 0.123),
    ("CGAATCAA", 0.268),
    ("CCACCCAA", 0.128),
    ("CAATCACA", 0.0918),
    ("GAAGGCGC", -0.0372),
    ("ACCGAGAG", -0.0606),
    ("CCCGGCCG", -0.233),
    ("AAATCACA", 0.199),
    ("GATGAAAC", 0.0586),
    ("GTACAACA", 0.159),
    ("ATCTCGAC", -0.0985),
    ("TTAATCAA", 0.0337),
    ("AACACGTG", 0.454),
]

----------
- Tested on: 2Sb-muMax20 (muMax20 with two 1,3-bis(methyl)benzene Cys staples, A13C/A17C and Q88C/A92C, C-terminal Lys)
- experimentalDetails: PBM 8-mer E-score (E-score (rank enrichment, -0.5 to 0.5)); higher = stronger preferential binding
Over roughly 33,000 sequences, “E-score (rank enrichment, -0.5 to 0.5)” has its median near -0.0028; the highest 2% begin near 0.23. The sample as a whole holds a higher share of the highest values than the screen did.
Mark True for reported PBM 8-mer E-score of 0.02 or greater; mark False for anything smaller.

# sequenceChain, groupLabel
measured = [
    ("CTCCCCTA", "True"),
    ("AAGGCAGA", "False"),
    ("CAATGCTC", "False"),
    ("GAACCACC", "False"),
    ("AGCCCACC", "False"),
    ("AACAAAAT", "True"),
    ("CTGTTTCC", "False"),
    ("GAAGGGGC", "True"),
    ("AGGGGTGA", "True"),
    ("CTCCCACA", "True"),
    ("CAATAGAC", "True"),
    ("CGTGCCCC", "True"),
    ("AAGGGTGG", "True"),
    ("ATAACGTA", "True"),
    ("CTTAAATA", "True"),
    ("ACGGAACT", "False"),
    ("CTAATAGA", "True"),
    ("GACAAGTC", "False"),
    ("ACCTGCGC", "False"),
    ("AATAAATG", "True"),
    ("CAATGCAA", "True"),
    ("GTAAAGTA", "True"),
    ("CCGCCTCG", "False"),
    ("ATAACTTG", "True"),
    ("CTAAAGTA", "False"),
    ("ACCACCCG", "False"),
    ("CGCCTCCG", "False"),
    ("ATCCCCTA", "True"),
    ("CCGATAGC", "False"),
    ("ATGCTGAA", "True"),
    ("ATCCCCTG", "True"),
    ("CAAGGCAC", "True"),
    ("AGCCCACA", "True"),
    ("TAACATAA", "True"),
    ("ATCACCCA", "False"),
    ("ATATTAAA", "True"),
    ("CTCCCACC", "True"),
    ("AACGTTCA", "True"),
    ("CCGACAGG", "False"),
    ("CACATTCC", "False"),
    ("GTTAAATA", "True"),
    ("AAACATAT", "True"),
    ("AAATAGGG", "True"),
    ("AATGTGGC", "True"),
    ("ATATTCAT", "True"),
    ("ATGGTGCA", "True"),
    ("AATTTGTA", "True"),
    ("ACATACCC", "False"),
    ("AATGTGGG", "True"),
    ("ATCTTAAC", "True"),
    ("TATAAATA", "True"),
    ("AATGGACA", "True"),
    ("CGAAGGCC", "False"),
    ("CGGTGTAA", "False"),
    ("AGGGTGGA", "False"),
    ("CTTGGCGC", "False"),
    ("TCCACCCA", "True"),
    ("AGTCTAAT", "True"),
    ("ATCACCCG", "False"),
    ("CAGGCAGC", "False"),
    ("AGAGCCAT", "False"),
    ("ATAAAGTA", "True"),
    ("AACAAAAA", "True"),
    ("CATAAATA", "True"),
    ("ATTGATGG", "True"),
    ("AATAAATA", "True"),
    ("CCCCCGGG", "False"),
    ("CATGTGGG", "True"),
    ("CACACCCG", "False"),
    ("ATCCCCTC", "True"),
    ("TCTTTCAA", "True"),
    ("GAACATAA", "True"),
    ("AGGGTGGC", "True"),
    ("ACCACCCC", "True"),
    ("AGCCCACG", "True"),
    ("AGCCTCAG", "False"),
    ("ATAACGTG", "True"),
    ("GGGTGTAA", "True"),
    ("AAACCTAG", "False"),
    ("GGCCCCAC", "True"),
    ("TTATTAAA", "True"),
    ("GCTGCAAA", "False"),
    ("GAATAGAC", "False"),
    ("AAATAGAA", "False"),
    ("ATAACTTA", "True"),
    ("CTCCTTGC", "False"),
    ("CAATAGGG", "True"),
    ("ATTGATGA", "True"),
    ("CATAAAAG", "False"),
    ("GTAATAGA", "True"),
]

----------
- System: 2Sb-muMax20 (muMax20 with two 1,3-bis(methyl)benzene Cys staples, A13C/A17C and Q88C/A92C, C-terminal Lys)
- experimentalDetails: PBM 8-mer E-score (E-score (rank enrichment, -0.5 to 0.5)); higher = stronger preferential binding
Whole data set: some 33,000 sequences, median “E-score (rank enrichment, -0.5 to 0.5)” near -0.0028, cut for the highest 2% near 0.23. The sample as a whole holds a higher share of the highest values than the screen did.
# PBM 8-mer E-score per record follows

# sequenceChain, PBM 8-mer E-score
measured = [
    ("ACTGGGTG", 0.00505),
    ("AATATGTG", 0.139),
    ("AATATATG", 0.3),
    ("ATAGGGCG", 0.138),
    ("ACCGGGCA", -0.237),
    ("ACGTGCAA", 0.252),
    ("ACGTGCAT", 0.199),
    ("AGGCCCGG", -0.321),
    ("AAAGTACT", 0.136),
    ("AATTAATG", 0.239),
    ("GACGGAAC", -0.127),
    ("AAAATATG", 0.143),
    ("TAGACGAA", -0.053),
    ("CCACGTTA", 0.318),
    ("ACTAAGGC", 0.00844),
    ("AGGGTTGC", -0.0164),
    ("CATATATC", 0.13),
    ("CTCGCGAA", -0.117),
    ("CCACGTTC", 0.0604),
    ("CTATTCAC", -0.0182),
    ("ACCAGGCC", -0.168),
    ("ACGTGCAC", 0.281),
]

----------
- System: 2Sb-muMax20 (muMax20 with two 1,3-bis(methyl)benzene Cys staples, A13C/A17C and Q88C/A92C, C-terminal Lys)
- experimentalDetails: PBM 8-mer E-score (E-score (rank enrichment, -0.5 to 0.5)); higher = stronger preferential binding
The full ranking holds about 33,000 sequences; the median of “E-score (rank enrichment, -0.5 to 0.5)” is about -0.0028, and the highest 2% start at about 0.23. What follows is part of a selection rich in the highest values, with near analogues and random picks from the rest.
Categorized via PBM 8-mer E-score: category 1 (below 0.04), category 2 (0.04 to below 0.2), category 3 (0.2 or more)

# sequenceChain, groupLabel
data = [
    ("AAAGCAAC", "category 2"),
    ("CACATACA", "category 1"),
    ("AACATACA", "category 2"),
    ("AAAGCAAT", "category 3"),
    ("GCTACTAC", "category 3"),
    ("AAGGGTCT", "category 1"),
    ("CAATTGCA", "category 3"),
    ("ACAGCAAC", "category 1"),
    ("GGTCAATA", "category 3"),
    ("GAGCAGCA", "category 1"),
    ("GTATGAGA", "category 2"),
    ("CGGATTCC", "category 1"),
    ("ACAGAAAA", "category 2"),
    ("CCTACTAG", "category 2"),
    ("ACAGAAAG", "category 3"),
    ("ATGTTGAC", "category 2"),
    ("ACGGATCT", "category 1"),
    ("CCTGGTTA", "category 1"),
    ("GGATTGTA", "category 2"),
    ("ACTAGTAG", "category 2"),
    ("ACAGAAAC", "category 2"),
    ("AAGACCTA", "category 2"),
    ("TGAAACAA", "category 3"),
    ("AATAGGGA", "category 3"),
    ("AGCGATCG", "category 3"),
    ("ATGAAATA", "category 2"),
    ("ACGGTGAG", "category 1"),
    ("AGTCAATA", "category 2"),
    ("CGTATAAG", "category 2"),
    ("GTTGAAAA", "category 2"),
    ("AAAAGGCA", "category 2"),
    ("CTGACCAC", "category 1"),
    ("GCCGGTTA", "category 1"),
    ("AGCGTCAA", "category 1"),
    ("CCAACGTA", "category 1"),
    ("ATAGCAAG", "category 2"),
    ("CGGTATTC", "category 1"),
    ("ATATGATA", "category 3"),
    ("AAATTCCA", "category 3"),
    ("CAGAATTA", "category 1"),
    ("ATGAAATG", "category 3"),
    ("CCGCCCCC", "category 1"),
    ("CTAACACA", "category 1"),
    ("GGCCGGCC", "category 1"),
    ("GGAGTAGA", "category 2"),
    ("ATAACATG", "category 2"),
    ("ATGAATGA", "category 2"),
    ("ATCACCGA", "category 1"),
    ("ATAACACA", "category 3"),
    ("ATAACATC", "category 3"),
    ("AATTGGGT", "category 3"),
    ("ATAACACG", "category 2"),
    ("ACCTTCCG", "category 2"),
    ("CGTCAATA", "category 1"),
    ("ACTACTAT", "category 2"),
    ("ACCTAGTG", "category 2"),
    ("ACCGCTTC", "category 1"),
    ("AGTATAAT", "category 3"),
    ("GGAAACAA", "category 2"),
    ("CGCTACCC", "category 1"),
    ("CCCTTGAG", "category 1"),
    ("AGTAAGTG", "category 3"),
    ("AATTCCCC", "category 2"),
    ("AGTATAAG", "category 3"),
    ("GTTGTCTA", "category 1"),
    ("TAGCCCCA", "category 3"),
    ("CATAAGTA", "category 2"),
    ("CAGCCCCA", "category 2"),
    ("GTATGATA", "category 3"),
    ("AATAAGTG", "category 2"),
    ("AATTGGAG", "category 2"),
    ("CATTGGGC", "category 1"),
    ("GATGTATA", "category 2"),
    ("CAGCCCAA", "category 2"),
    ("CATTGGGA", "category 1"),
    ("ATTGTCTA", "category 3"),
    ("CGCTCGAG", "category 2"),
    ("CGTAGAAA", "category 1"),
    ("AAAATCAG", "category 1"),
    ("ATTACTAC", "category 3"),
    ("AAAGCAAG", "category 2"),
    ("GAATTCCA", "category 2"),
    ("TAATTGCA", "category 2"),
    ("ATGAATTC", "category 2"),
    ("ATTACTAG", "category 1"),
    ("AATTGGTG", "category 2"),
    ("AAAATCAC", "category 3"),
    ("AATGCGCT", "category 2"),
    ("GCTACTAA", "category 2"),
    ("ATACAAAC", "category 2"),
]

The values you see were collected from the supplement of paper PMC12636033.
